Every entry's value here was drawn from patent US7803930B2.

- System: human apolipoprotein B mRNA
- experimental_protocol: Inhibition of human apolipoprotein B mRNA levels in HepG2 cells, quantitative real-time PCR
- Format: cell-based
- experimental_context: HepG2 cells treated with 150 nM of compound; averages from two experiments; quantitative real-time PCR
In the oligonucleotide strings, read from the 5' end, every base follows the letter of its sugar. An asterisk marks phosphorothioate; unmarked linkages are phosphodiester. Other units and linkages are bracketed, terminal groups are in braces. A string of capitals states the bases alone. e = 2'-O-(2-methoxyethyl) (MOE); [5mC] = 5-methylcytosine; d = 2'-deoxy (DNA)
Recorded measurements of % INHIB (inhibition of human apolipoprotein B mRNA levels), one per entry
recorded_metric: % INHIB (inhibition of human apolipoprotein B mRNA levels) (%)

[
  {
    "substance": "301044 (eA*eA*eA*eA*eT*dA*dA*d[5mC]*dT*d[5mC]*dA*dG*dA*dT*d[5mC]*e[5mC]*eT*eG*eA*eT; antisense) [compound 301044]",
    "unit_descriptor": "%",
    "numeric_readout": 76
  },
  {
    "substance": "281610 (antisense e[5mC]*eA*eG*e[5mC]*eT*d[5mC]*dT*dA*dA*dT*d[5mC]*dT*dG*dG*dT*eG*eT*e[5mC]*e[5mC]*e[5mC]) [compound 281610]",
    "unit_descriptor": "%",
    "numeric_readout": 69
  },
  {
    "substance": "281606 (antisense eT*eG*e[5mC]*eA*eA*d[5mC]*dT*dG*dT*dA*dA*dT*d[5mC]*d[5mC]*dA*eG*e[5mC]*eT*e[5mC]*e[5mC]) [compound 281606]",
    "unit_descriptor": "%",
    "numeric_readout": 86
  }
]
